assay: reduced absorbance of E. coli cultures with phage – HTS, RecBCD inhibitor project, primary screen (AID 651602); settings: growth absorbance, at 11.9 µM
The whole screen tested about 360,000 compounds, of which about 950 (0.26%) were called active. Rule as the data show it: active = inhibition above about 11%; inactive = the rest. The full list was thinned out, with actives kept by preference.
Hi there, use one of these labels in your reply, thanks! true = active, false = inactive

## Input Hey, what did the test say about O=[N+]([O-])c1cnc2ccc3ccccc3c2c1 ?
## Output true

## Input Hey, what did the test say about CCC1(C)CC(CCNCc2ccc(N(C)C)cc2)(c2ccc(F)cc2)CCO1 (stereo not drawn) ?
## Output false

## Input Hey, what did the test say about COc1ccc(N=Cc2c(O)n(C)c(=O)[nH]c2=O)cc1 ?
## Output false

## Input Hey, what did the test say about Cc1cccc(-n2c(C)nc3cc(C(=O)N4CCC5(CC4)OCCO5)ccc32)c1 ?
## Output false
